# System: Spleen cells
# Test: Mitogenesis assay for immunosuppressive activity (concanavalin A stimulated spleen cells, 3H-thymidine)
# Format: cell-based, BDF1 female mice
# Test settings: Mus musculus; Concanavalin A 5 μg/ml, 72 hours at 37° C., 3H-thymidine pulse last 18 hours; read-out: Mitogenesis (IC50)
Readout kind: IC50 (nM)
Dear colleague, please return just the value in nM, with no unit written.

Input line: What value of IC50 on Spleen cells does COC1CC2CCC(C)C(O)(O2)C(=O)C(=O)N2CCCCC2C(=O)OC(C(C)CC2CCC(O)C(O)C2)CC(=O)C(C)C=C(C)C(O)C(OC)C(=O)C(C)CC(C)C=CC=CC=C1C (stereo not shown) have?
Output line: 3
